test system: Bacillus pumilus strain K-1; assay: Inhibition of bacterial growth, filter paper on inoculated agar plates; assay type: cell-based; settings: Bacillus pumilus, K1, Table IX; 10^-3 M; read-out: Diameter of Inhibition
OUTCOME_MEASURE: zone of inhibition at 1000 µM (mm)

>>> print(df.to_string())
                                   molecule  readout_units  result_number
0  CCN1C(=CC=Cc2oc3ccccc3[n+]2CC)Oc2ccccc21 [Dye 7]             mm             34
1  CCN1C(=Cc2oc3ccccc3[n+]2CC)Oc2ccccc21 [Dye 1]             mm             18
2  CCN1C(=CC=Cc2oc3cc(OC)ccc3[n+]2CC)Oc2cc(OC)ccc21 [Dye 4]             mm           28.5
3  CCN1C(=CC=Cc2oc3cc(Cl)ccc3[n+]2CC)Oc2cc(Cl)ccc21 [Dye 9]             mm           30.5
4  CCN1C(=CC=Cc2oc3ccc(OC(C)=O)cc3[n+]2CC)Oc2ccc(OC(C)=O)cc21 [Dye 10]             mm           28.5
